// data source = a melting point compilation (Tetko et al.; mined from patent text by program, amines drawn as free bases though some values may be those of a salt)

RECORDED_ENDPOINT: melting point

Example entries and their recorded answers appear below.
[[record]]
compound = "COc1ccc(CCN(C)C)c2nn[nH]c12"
recorded_endpoint = "melting point"
assay_result = "176 to 180 °C"

[[record]]
compound = "c1cnc2ccc(Cn3nnc4ccc(-c5cnn(C6CCOCC6)c5)nc43)cc2c1"
recorded_endpoint = "melting point"
assay_result = "182 to 184 °C"

[[record]]
compound = "COc1cc(-n2c(-c3cc(-c4cnc5[nH]ccc5c4)ccn3)cn(C)c2=O)ccc1Cl"
recorded_endpoint = "melting point"
assay_result = "223 °C"

[[record]]
compound = "COC(=O)[C@]12OC(=O)C[C@H]1S[C@@H]1[C@H](NC(=O)COc3ccccc3)C(=O)N12"
recorded_endpoint = "melting point"
assay_result = "182 to 184 °C"

[[record]]
compound = "CC[C@H](COC)n1cc(Cl)nc(N2CCc3cc(OC)cc(C)c32)c1=O"
recorded_endpoint = "melting point"
assay_result = "62 to 64 °C"


// query Report melting point for Cc1ccc(S(=O)(=O)C2=C(C(=O)OCC(C)C)C(=O)C=C(C(=O)OCC(C)C)C2=O)cc1 please.
// result 112 to 114 °C

// query And then Cc1c(F)c(N2CCNC(C)C2)c(F)c2c1c(=O)c(C(=O)O)cn2C1CC1 (centres undefined) , what is it?
// result 187 to 188 °C

// query Then this compound: O=C(CCc1ccc(OCc2ccccc2)cc1)c1ncc(-c2ccccn2)o1
// result 99 to 100 °C

// query Moving on to COC(=O)c1ccc(CNC(=O)c2cccc(-c3nnn(Cc4ccc(OC)cc4)n3)c2)cc1
// result 167 to 168 °C

// query Follow-up item: CC1(C)CCC(C)(C)c2cc(-c3cc(-c4ccc(C(=O)O)cc4)ccc3OCCCCCCCCO)ccc21
// result 155 to 160 °C
